test system: HeLa cells; test: cells; type: cell-based; conditions: S Phase
quantity name: IC50/EC50, Hela CellCycMod PI S Phase (assay number 15)

- Cc1cc(N)c2ccccc2[n+]1CCCCCCCCCC[n+]1c(C)cc(N)c2ccccc21: > 10 µM
- O=C(O)CCCc1ccc(N(CCCl)CCCl)cc1: 2.1921 µM
- CCc1nc(N)nc(N)c1-c1ccc(Cl)cc1: > 10 µM
- CCN1/C(=C/C=C/c2sc3ccccc3[n+]2CC)Sc2ccccc21.[I-]: > 10 µM
- COC(=O)c1nc(Cl)c(Cl)nc1N: > 10 µM

Exam item: What IC50/EC50, Hela CellCycMod PI S Phase (assay number 15) value was documented for this molecule, `C[n+]1c2cc(N)ccc2cc2ccc(N)cc21` ?
Marked response: 1.9618 µM
